STUDY_SYSTEM: BRSK2 (human)
MEASUREMENT_DESCRIPTION: Caliper, Mobility shift assay off-chip
RUN_PARAMETERS: compound 0.2 µM
PROPERTY_MEASURED: inhibition (%)
Just the number in %, nothing appended.

COc1cc2c(Oc3ccc4[nH]c(C)cc4c3F)ncnc2cc1OCCCN1CCCC1	2.8
Cc1ccc(Nc2nccc(N(C)c3ccc4c(C)n(C)nc4c3)n2)cc1S(N)(=O)=O	0.4
CCN(CC)CCNC(=O)c1c(C)[nH]c(/C=C2\C(=O)Nc3ccc(F)cc32)c1C	36.7

// moving on: another record for inhibition
Lookup result for CNC(=O)c1cc(Oc2ccc(NC(=O)Nc3ccc(Cl)c(C(F)(F)F)c3)cc2)ccn1 ; measured inhibition: -1.3

Data origin: the kinase profiling compilation of Christmann-Franck et al. (2016)
